Target: T1, Anti-CD28 Fab (SEQ ID NOs: 696, 697)
T1 construct: In the phage ELISA the Fab was biotinylated and captured on neutravidin coated plates
T1 sequence (VH, as listed by the source, chain 1 of 2): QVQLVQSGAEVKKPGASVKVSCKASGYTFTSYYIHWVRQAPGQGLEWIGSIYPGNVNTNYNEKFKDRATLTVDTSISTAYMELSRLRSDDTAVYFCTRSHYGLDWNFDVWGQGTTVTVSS
T1 sequence (VL, as listed by the source, chain 2 of 2): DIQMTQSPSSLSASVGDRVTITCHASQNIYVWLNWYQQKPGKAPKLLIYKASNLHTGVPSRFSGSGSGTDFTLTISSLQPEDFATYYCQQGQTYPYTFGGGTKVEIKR
Assay: phage binding ELISA on Fab coated plate; wells pre-incubated with CD28 antigen as competitor
Where no end group is shown, it is not given here.
OBSERVATION_TYPE: Anti-CD28 Fab signal in the presence of CD28

YCDGHAAEYMDKCL (not shown: pIII coat protein of the bacteriophage to which the peptide is fused) [Phage-878] :: 0.07
YCDGHSGVYMWKCL (not shown: pIII coat protein of the bacteriophage to which the peptide is fused) [Phage-870] :: 0.08
YCEGHSEMYMKKCL (not shown: pIII coat protein of the bacteriophage to which the peptide is fused) [Phage-875] :: 0.07
YCDGHAIQYIGKCL (not shown: pIII coat protein of the bacteriophage to which the peptide is fused) [Phage-872] :: 0.09
YCAGHSAEYMAKCL (not shown: pIII coat protein of the bacteriophage to which the peptide is fused) [Phage-869] :: 0.07
YCDGHLPEYIFKCL (cysteine pairing not given here; also: fused to phage pIII coat protein (sequence and linker not given here), not shown: pIII coat protein of the bacteriophage to which the peptide is fused) [Phage-866] :: 0.09
YCDGHAAEFMMKCL (not shown: pIII coat protein of the bacteriophage to which the peptide is fused) [Phage-873] :: 0.06

Now for a further binder.
Prompt: Given the entry YCDGHLQIYLWKCL (not shown: pIII coat protein of the bacteriophage to which the peptide is fused) [Phage-876] , report its measured Anti-CD28 Fab signal in the presence of CD28.
Response: 0.07
